# System: telomerase ribonucleoprotein complex
# PROCEDURE_TEXT: TRAP assay in cell extracts (HeLa, DU145, HEK293)
# Format: biochemical, human
# STUDY_CONDITIONS: cell extracts (HeLa, DU 145, and 293); SEQ ID NO: 1 variants; read-out: IC50 from TRAP
pIC50: −log10 of the molar value. Strand notation (5' to 3'): a small letter for the sugar, then the base; units joined by * are phosphorothioate-linked, units joined directly phosphodiester-linked; [ ] holds rarer units or linkages, { } end groups; capitals alone tell only the bases. m = 2'-O-methyl
EXPERIMENTAL_ENDPOINT: pIC50

Please review the following examples before continuing.
| SUBSTANCE | pIC50 |
| --- | --- |
| G*C*C*U*C*C*A*G (mG*mC*mC*mU*mC*mC*mA*mG) [G*C*C*U*C*C*A*G LNA] | ~5.22 |
| GCCUCCA*G (mGmCmCmUmCmCmA*mG) | ~4.80 |

Please look at the following substance next.
[Q] Param readout= pIC50; system= telomerase ribonucleoprotein complex; entry= G*CCUCCAG (mG*mCmCmUmCmCmAmG) ; returns value.
[A] ~5.05

====

# Test system: telomerase ribonucleoprotein complex
# PROCEDURE_TEXT: TRAP assay in cell extracts (HeLa, DU145, HEK293)
# Format: biochemical, human
# STUDY_CONDITIONS: cell extracts, in vitro; read-out: IC50, telomerase inhibition in TRAP
# Source text: Having discovered a panel of RIPtides that bind four different regions on the naked RNA component of telomerase, it was next determined whether these molecules were capable of inhibiting the activity of the telomerase ribonucleoprotein complex in an in vitro setting. […] Using a version of the TRAP assay (Cy5-TRAP) that utilizes fluorescence detection (Herbert, B.-S. et al., Nat. Protocols 1, 1583-1590 (2006)). […]
pIC50: −log10 of the molar value.
EXPERIMENTAL_ENDPOINT: pIC50

[Q] # lookup: pIC50 of GGUGGAAGGC (as printed in the source, key not given here)
[A] ~9.00

====

# System: full-length hTR
# PROCEDURE_TEXT: Fluorescence polarization binding to full-length hTR
# Set-up: species or system human
# STUDY_CONDITIONS: full-length hTR construct; SEQ ID NO: 1 variants; read-out: Kp from FP
# Source text: To assess and quantify the ability of the RIPtide hits from microarray screening to bind the target RNA in solution, a panel of RIPtides representing variations on the consensus sequences of top hits within each cluster was selected. […] Fluorescence polarization (FP) was then used to measure quantitatively the equilibrium dissociation constant (Kd) values of the FAM-labeled RIPtides, using the same folded target RNAs and buffer system as had been employed in the microarray screen. […]
Strand notation (5' to 3'): a small letter for the sugar, then the base; units joined by * are phosphorothioate-linked, units joined directly phosphodiester-linked; [ ] holds rarer units or linkages, { } end groups; capitals alone tell only the bases. m = 2'-O-methyl
EXPERIMENTAL_ENDPOINT: Kd (nM)
Give the number; nM is assumed, so skip it.

Before answering, review these 2 worked examples.
| SUBSTANCE | U | OBSERVED_MEASUREMENT |
| --- | --- | --- |
| G*CCUCCAG (mG*mCmCmUmCmCmAmG) | nM | 8.8 |
| G*CCUCCA*G (mG*mCmCmUmCmCmA*mG; further chemistry not given here) | nM | 37.3 |

[Q] Name the recorded Kd for GCCUCCA*G (mGmCmCmUmCmCmA*mG) .
[A] 8.9
